Biological target: URAT1 (SLC22A12) (Homo sapiens (Human), UniProt Q96S37)
Sequence (Q96S37 whole entry): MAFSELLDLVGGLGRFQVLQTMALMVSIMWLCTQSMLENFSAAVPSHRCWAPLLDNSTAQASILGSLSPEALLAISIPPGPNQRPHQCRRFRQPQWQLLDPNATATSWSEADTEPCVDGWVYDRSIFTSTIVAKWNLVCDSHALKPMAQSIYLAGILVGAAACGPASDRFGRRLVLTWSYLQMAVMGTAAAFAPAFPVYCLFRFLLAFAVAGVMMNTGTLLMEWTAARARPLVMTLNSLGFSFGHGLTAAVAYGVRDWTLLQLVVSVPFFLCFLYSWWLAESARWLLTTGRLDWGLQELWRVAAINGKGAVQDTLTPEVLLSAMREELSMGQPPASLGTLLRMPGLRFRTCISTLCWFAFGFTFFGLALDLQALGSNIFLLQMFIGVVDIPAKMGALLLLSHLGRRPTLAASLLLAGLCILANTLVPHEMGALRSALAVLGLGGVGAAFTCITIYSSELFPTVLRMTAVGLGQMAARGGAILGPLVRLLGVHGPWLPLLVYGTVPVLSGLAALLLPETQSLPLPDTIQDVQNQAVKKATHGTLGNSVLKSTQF
Assay: URAT1 (SLC22A12) cellular uptake assay, 3H-orotate transport in stably transfected URAT-1/CHO cells
Conditions: read-out: URAT1 IC50; URAT-1/CHO cells, 3H-orotate uptake; URAT1 assay as described herein
For each of the compounds below, state its pIC50.
One number for each entry, as −log10 of the molar value.

Use these answered entries as a reference point.
| compound | pIC50 |
| --- | --- |
| O=C(Nc1ccc(-c2noc(=O)[nH]2)cc1)c1c(O)[nH]c(=O)[nH]c1=O [Formula (If)] | 5.12 |
| O=C(Nc1ccc2n[nH]nc2c1)c1c(O)[nH]c(=O)[nH]c1=O [Formula (IIIa)] | 5.87 |

As a next step, examine the compound that follows.
Prompt: Identify pIC50 associated with the compound O=C(Nc1ccc(-c2cnn[nH]2)cc1)c1c(O)[nH]c(=O)[nH]c1=O [Formula (IIe)]
Response: 6.16

====

Biological target: UniProtKB P47989
Test: Fluorescence-based xanthine oxidase activity assay
Type: biochemical
pIC50: −log10 of the molar value.
measurement-name: pIC50

Prompt: Fill in pIC50 for "O=C(Nc1ccc(O)c(CO)c1)c1c(O)[nH]c(=O)[nH]c1=O" tested with UniProtKB P47989.
Response: > 5.00

====

Target: URAT1 (SLC22A12) (Homo sapiens (Human), UniProt Q96S37)
Experiment: URAT1 (SLC22A12) cellular uptake assay, 3H-orotate transport in stably transfected URAT-1/CHO cells
measurement-name: IC50

Prompt: Identify IC50 associated with the compound O=C(Nc1ccc(O)c(CO)c1)c1c(O)[nH]c(=O)[nH]c1=O [Formula (Id)]
Response: < 10 µM

====

For each of the molecules below, state its IC50.
Biological target: Xanthine oxidase (Homo sapiens (Human), UniProt P47989)
Sequence (P47989 whole entry, species assumed): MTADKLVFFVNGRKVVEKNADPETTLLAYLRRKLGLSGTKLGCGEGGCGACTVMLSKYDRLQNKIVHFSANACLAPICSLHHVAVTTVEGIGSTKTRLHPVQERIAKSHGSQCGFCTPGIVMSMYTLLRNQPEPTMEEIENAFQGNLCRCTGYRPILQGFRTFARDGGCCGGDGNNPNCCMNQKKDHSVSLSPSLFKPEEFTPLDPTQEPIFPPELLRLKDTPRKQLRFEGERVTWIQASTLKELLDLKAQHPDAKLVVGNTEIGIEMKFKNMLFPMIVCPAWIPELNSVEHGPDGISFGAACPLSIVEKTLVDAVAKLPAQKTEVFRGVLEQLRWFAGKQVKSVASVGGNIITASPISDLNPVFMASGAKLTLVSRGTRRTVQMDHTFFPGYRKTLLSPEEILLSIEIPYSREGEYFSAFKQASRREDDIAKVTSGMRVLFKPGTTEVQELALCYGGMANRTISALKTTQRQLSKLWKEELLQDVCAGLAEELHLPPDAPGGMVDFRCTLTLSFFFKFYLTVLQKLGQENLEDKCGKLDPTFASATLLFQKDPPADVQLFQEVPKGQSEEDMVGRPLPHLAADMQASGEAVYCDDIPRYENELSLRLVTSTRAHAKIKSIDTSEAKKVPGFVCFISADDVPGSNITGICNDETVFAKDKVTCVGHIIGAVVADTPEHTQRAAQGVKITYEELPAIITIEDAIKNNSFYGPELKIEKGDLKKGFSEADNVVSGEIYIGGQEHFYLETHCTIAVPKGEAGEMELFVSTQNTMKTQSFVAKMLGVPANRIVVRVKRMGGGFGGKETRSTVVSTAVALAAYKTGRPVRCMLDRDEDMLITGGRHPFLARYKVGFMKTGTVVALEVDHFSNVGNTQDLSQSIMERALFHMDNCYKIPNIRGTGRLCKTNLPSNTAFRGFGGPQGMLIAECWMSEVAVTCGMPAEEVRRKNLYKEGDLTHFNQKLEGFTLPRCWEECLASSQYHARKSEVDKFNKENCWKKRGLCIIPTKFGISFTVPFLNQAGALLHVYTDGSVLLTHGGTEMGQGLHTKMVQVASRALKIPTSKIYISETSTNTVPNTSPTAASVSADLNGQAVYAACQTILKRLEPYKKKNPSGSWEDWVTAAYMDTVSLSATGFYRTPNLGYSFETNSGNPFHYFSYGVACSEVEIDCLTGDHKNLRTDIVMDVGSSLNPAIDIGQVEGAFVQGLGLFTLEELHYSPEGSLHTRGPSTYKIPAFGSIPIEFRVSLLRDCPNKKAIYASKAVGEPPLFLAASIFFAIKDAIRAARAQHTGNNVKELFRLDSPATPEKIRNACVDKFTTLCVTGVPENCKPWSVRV
Assay: Fluorescence-based xanthine oxidase activity assay
Assay type: biochemical
Conditions: fluorescence-based assay, triplicate, 10 concentrations; read-out: Xanthine Oxidase IC50
Give bare numbers, in µM.

| chemical-string | tested-on | unit-of-measure | recorded-measurement |
| --- | --- | --- | --- |
| O=C(Nc1ccc(-n2cnnn2)cc1)c1c(O)[nH]c(=O)[nH]c1=O | Xanthine oxidase (Homo sapiens (Human), UniProt P47989) | µM | 20.7 |
| CS(=O)(=O)Nc1ccc(NC(=O)c2c(O)[nH]c(=O)[nH]c2=O)cc1 | Xanthine oxidase (Homo sapiens (Human), UniProt P47989) | µM | 87 |
| O=C(Nc1ccc(NS(=O)(=O)C(F)(F)F)cc1)c1c(O)[nH]c(=O)[nH]c1=O | Xanthine oxidase (Homo sapiens (Human), UniProt P47989) | µM | 201 |
| O=C(Nc1ccc(-c2nnn[nH]2)cc1)c1c(O)[nH]c(=S)[nH]c1=O | Xanthine oxidase (Homo sapiens (Human), UniProt P47989) | µM | 0.39 |
| O=C(Nc1ccc(O)c(CO)c1)c1c(O)[nH]c(=O)[nH]c1=O | Xanthine oxidase (Homo sapiens (Human), UniProt P47989) | µM | 3.66 |
| O=C(Nc1ccc2n[nH]nc2c1)c1c(O)[nH]c(=O)[nH]c1=O | Xanthine oxidase (Homo sapiens (Human), UniProt P47989) | µM | 8.93 |

As a next step, examine the molecule that follows.
Prompt: Identify IC50 associated with the molecule "O=C(Nc1ccc(-c2nnn[nH]2)cc1)c1c(O)[nH]c(=O)[nH]c1=O"
Response: 0.68

====

Target: URAT1 (SLC22A12) (Homo sapiens (Human), UniProt Q96S37)
Experiment: URAT1 (SLC22A12) cellular uptake assay, 3H-orotate transport in stably transfected URAT-1/CHO cells
Settings: read-out: URAT1 IC50; URAT-1/CHO cells, 3H-orotate uptake; URAT1 assay as described herein
For each of the compounds below, state its IC50.
Answers are plain numbers, in µM.

| compound | measurement-name | recorded-measurement |
| --- | --- | --- |
| O=C(Nc1ccc(-c2nnn[nH]2)cc1)c1c(O)[nH]c(=S)[nH]c1=O [Formula (IIb)] | IC50 | 147 |

Hello, I would appreciate it if you could give IC50 for each entry below.
1. O=C(Nc1ccc(-c2cnn[nH]2)cc1)c1c(O)[nH]c(=S)[nH]c1=O [Formula (IIf)]
2. O=C(Nc1ccc(-c2nnn[nH]2)cc1)c1c(O)[nH]c(=O)[nH]c1=O [Formula (IIa)]
3. O=C(Nc1ccc(O)c(CO)c1)c1c(O)[nH]c(=O)[nH]c1=O [Formula (Id)]

Response:
11.1
9.54
7.26

Origin of the recorded values: patent US10093658B2
